Give measured pest or weed control at 70 g/ha for each item. Keep answers brief.
# Tested on: Key Grass and Sedge Weeds as well as Grass Crops
# methodNotes: Post-emergent Test II herbicidal activity (Table 6)
# Assay type: in vivo
# details: post-emergence, 336 h, DIGSA: crabgrass (Digitaria sanguinalis), application rate 70 g ai/ha, read-out: Visual Growth Reduction (%) 14 Days After Application, DIGSA

Output measured pest or weed control at 70 g/ha for this item: COC(=O)c1nc(-c2cc(F)c(C#N)cc2F)nc(N)c1OC
0 to 29%

Check the records and state pest or weed control at 70 g/ha for COC(=O)c1nc(-c2ccc(Br)c(F)c2)c(C)c(N)c1Cl
60 to 74%

Using known records, supply pest or weed control at 70 g/ha for Cc1cc(F)c(-c2nc(C(=O)O)c(Cl)c(N)c2F)cc1F
0 to 29%

Please supply the value of reported pest or weed control at 70 g/ha for the item Nc1c(F)c(-c2cc(F)c(OC(F)F)cc2F)nc(C(=O)O)c1Cl
0 to 29%

Supply pest or weed control at 70 g/ha value. Item: COC(=O)c1nc(-c2cc(F)c(C#N)cc2F)c(F)c(N)c1Cl
0 to 29%

Kindly indicate its recorded pest or weed control at 70 g/ha. Item: COc1c(N)nc(-c2cc(F)c(C(F)F)cc2F)nc1C(=O)O
0 to 29%

Return the recorded pest or weed control at 70 g/ha value; entry: COC(=O)c1nc(-c2cc(F)c(C)cc2F)nc(N)c1OC
0 to 29%

Write down pest or weed control at 70 g/ha measured for item Nc1c(F)c(-c2ccc(OC(F)F)c(F)c2)nc(C(=O)O)c1Cl
60 to 74%

Name the recorded pest or weed control at 70 g/ha of the compound listed here: COC(=O)c1nc(-c2cccc(F)c2)c(F)c(N)c1Cl
0 to 29%

Given the compound COC(=O)c1nc(-c2c(F)cc(I)c(F)c2F)cc(N)c1Cl , write its reported pest or weed control at 70 g/ha.
85 to 94%

// fetch pest or weed control at 70 g/ha given entry Cc1c(-c2ccc(I)c(F)c2)nc(C(=O)O)c(Cl)c1N
60 to 74%

Quick one: give measured pest or weed control at 70 g/ha for COC(=O)c1nc(-c2ccc(C#N)cc2F)c(F)c(N)c1Cl
0 to 29%

# return recorded pest or weed control at 70 g/ha for entry Nc1cc(-c2ccc(I)cc2F)nc(C(=O)O)c1Cl
75 to 84%

Indicate its recorded pest or weed control at 70 g/ha; the compound in question is C=Cc1c(N)nc(-c2ccc(F)c(F)c2F)nc1C(=O)O
60 to 74%

Identify measured pest or weed control at 70 g/ha associated with COC(=O)c1nc(-c2ccc(I)c(F)c2)c(Cl)c(N)c1Cl
60 to 74%

Answer with the recorded pest or weed control at 70 g/ha for the compound listed here: COC(=O)c1nc(-c2cc(F)c(C(F)(F)F)cc2F)nc(N)c1OC
0 to 29%

* * *

# Tested on: ALOMY: black-grass (Alopecurus myosuroides)
# methodNotes: Post-emergent Test III, herbicidal activity in wheat and barley
# Type: in vivo
# details: Alopecurus myosuroides, post-emergence, 504 h; 35 g ai/ha; read-out: Visual Growth Reduction (%) 21 Days After Application ALOMY
attributeMeasured: pest or weed control at 35 g/ha

For the compound Nc1c(F)c(-c2ccc(C(F)(F)F)c(F)c2F)nc(C(=O)O)c1Cl , give its reported pest or weed control at 35 g/ha.
30 to 44%

Name the recorded pest or weed control at 35 g/ha of the compound listed here: COC(=O)c1nc(-c2ccc(OC(F)F)cc2)c(F)c(N)c1Cl
0 to 29%

Identify the reported pest or weed control at 35 g/ha for the following entry. Nc1c(F)c(-c2ccc(Cl)c(F)c2)nc(C(=O)O)c1Cl
75 to 84%

Given COC(=O)c1nc(-c2ccc(Br)c(F)c2F)cc(N)c1Cl , respond with its pest or weed control at 35 g/ha.
0 to 29%

# return recorded pest or weed control at 35 g/ha for entry COC(=O)c1nc(-c2ccc(I)cc2)c(F)c(N)c1Cl
60 to 74%

Check the records and state pest or weed control at 35 g/ha for Nc1cc(-c2ccc(Br)c(F)c2F)nc(C(=O)O)c1Cl
45 to 59%

Give pest or weed control at 35 g/ha for Nc1c(F)c(-c2ccc(Br)c(F)c2F)nc(C(=O)O)c1Cl
60 to 74%

For the compound Nc1c(F)c(-c2ccc(Br)cc2)nc(C(=O)O)c1Cl , report pest or weed control at 35 g/ha.
75 to 84%

Ref: patent US9113629B2
